Origin of measurements: patent US20240228562A1

The reader will find reported human CTGF koff values listed item by item below.
- SUBJECT_OF_TEST: T1, human CTGF (Homo sapiens, UniProt P29279)
- T1 construct: purchased Creative Biomart
- ASSAY_METHOD_TEXT: SPR binding kinetics and affinity, human CTGF
- CONDITION_LABEL: 25° C., 1:1 binding model

MOLECULE	human CTGF koff
SEQ ID NO: 7: parent CTGF-binding hNGAL lipocalin mutein (protein, lipocalin mutein) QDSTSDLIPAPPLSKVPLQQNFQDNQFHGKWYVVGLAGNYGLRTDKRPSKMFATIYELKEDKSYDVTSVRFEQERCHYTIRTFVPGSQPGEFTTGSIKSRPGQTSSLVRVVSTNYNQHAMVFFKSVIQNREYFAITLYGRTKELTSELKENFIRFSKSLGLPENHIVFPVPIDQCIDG	0.00587 s⁻¹

Determine from records and report human CTGF koff for SEQ ID NO: 34: optimized CTGF-binding hNGAL lipocalin mutein (protein, lipocalin mutein) QDSTSDLIPAPPLSKVPLQQNFQDNQFQGKWYVVGWAGNVILREDKQPFKMSATIYELKEDKSYDVTEVVFEQKKCHYIIKTFVPGSQPGEFTLGDIKSPPGETSTLVRVVSTNYNQHAMVFFKKVSQNREFFWITLYGRTKELTSELKENFIRFSKSLGLPENHIVFPVPIDQCIDG 0.000169 s⁻¹

Determine from records and report human CTGF koff for SEQ ID NO: 32: optimized CTGF-binding hNGAL lipocalin mutein (protein, lipocalin mutein) QDSTSDLIPAPPLSKVPLQQNFQDNQFQGKWYVVGWAGNVKLREDKQPFKMSATIYELKEDKSYDVTEVVFEQKKCHYIIKTFVPGSQPGEFTLSPISSSPGLVSHLVRVVSTNYNQHAMVFFKKVHQNREFFWITLYGRTKELTSELKENFIRFSKSLGLPENHIVFPVPIDQCIDG 6.39e-05 s⁻¹
